SYSTEM UNDER TEST: PI3K (Homo sapiens)
Sequence (P42336 whole entry): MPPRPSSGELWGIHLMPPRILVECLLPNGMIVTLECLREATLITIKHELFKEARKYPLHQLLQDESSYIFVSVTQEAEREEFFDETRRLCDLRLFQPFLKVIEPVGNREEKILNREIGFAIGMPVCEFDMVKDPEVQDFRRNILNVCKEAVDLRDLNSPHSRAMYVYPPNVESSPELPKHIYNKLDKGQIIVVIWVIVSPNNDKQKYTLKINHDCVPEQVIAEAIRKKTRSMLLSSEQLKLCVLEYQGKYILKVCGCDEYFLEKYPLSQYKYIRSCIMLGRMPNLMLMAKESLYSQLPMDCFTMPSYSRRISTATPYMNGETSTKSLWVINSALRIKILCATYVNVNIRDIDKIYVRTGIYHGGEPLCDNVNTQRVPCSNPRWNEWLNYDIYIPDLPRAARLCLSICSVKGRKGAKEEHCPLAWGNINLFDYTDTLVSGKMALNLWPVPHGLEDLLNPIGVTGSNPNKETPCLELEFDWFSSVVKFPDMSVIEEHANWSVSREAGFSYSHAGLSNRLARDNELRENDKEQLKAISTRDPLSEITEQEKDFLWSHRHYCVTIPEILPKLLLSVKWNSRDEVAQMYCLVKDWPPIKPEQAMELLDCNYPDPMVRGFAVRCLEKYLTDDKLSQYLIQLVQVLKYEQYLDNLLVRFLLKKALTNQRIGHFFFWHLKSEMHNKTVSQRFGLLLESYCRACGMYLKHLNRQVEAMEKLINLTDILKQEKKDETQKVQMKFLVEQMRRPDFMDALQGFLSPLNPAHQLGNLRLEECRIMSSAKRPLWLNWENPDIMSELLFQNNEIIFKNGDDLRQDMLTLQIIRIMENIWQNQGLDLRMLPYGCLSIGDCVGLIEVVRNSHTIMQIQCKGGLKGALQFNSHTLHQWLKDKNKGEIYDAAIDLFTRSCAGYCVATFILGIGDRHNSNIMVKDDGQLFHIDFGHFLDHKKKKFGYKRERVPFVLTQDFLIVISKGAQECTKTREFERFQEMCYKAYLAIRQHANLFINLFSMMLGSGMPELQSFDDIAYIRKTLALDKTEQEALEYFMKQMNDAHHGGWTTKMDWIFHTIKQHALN
Sequence (P27986 whole entry partner): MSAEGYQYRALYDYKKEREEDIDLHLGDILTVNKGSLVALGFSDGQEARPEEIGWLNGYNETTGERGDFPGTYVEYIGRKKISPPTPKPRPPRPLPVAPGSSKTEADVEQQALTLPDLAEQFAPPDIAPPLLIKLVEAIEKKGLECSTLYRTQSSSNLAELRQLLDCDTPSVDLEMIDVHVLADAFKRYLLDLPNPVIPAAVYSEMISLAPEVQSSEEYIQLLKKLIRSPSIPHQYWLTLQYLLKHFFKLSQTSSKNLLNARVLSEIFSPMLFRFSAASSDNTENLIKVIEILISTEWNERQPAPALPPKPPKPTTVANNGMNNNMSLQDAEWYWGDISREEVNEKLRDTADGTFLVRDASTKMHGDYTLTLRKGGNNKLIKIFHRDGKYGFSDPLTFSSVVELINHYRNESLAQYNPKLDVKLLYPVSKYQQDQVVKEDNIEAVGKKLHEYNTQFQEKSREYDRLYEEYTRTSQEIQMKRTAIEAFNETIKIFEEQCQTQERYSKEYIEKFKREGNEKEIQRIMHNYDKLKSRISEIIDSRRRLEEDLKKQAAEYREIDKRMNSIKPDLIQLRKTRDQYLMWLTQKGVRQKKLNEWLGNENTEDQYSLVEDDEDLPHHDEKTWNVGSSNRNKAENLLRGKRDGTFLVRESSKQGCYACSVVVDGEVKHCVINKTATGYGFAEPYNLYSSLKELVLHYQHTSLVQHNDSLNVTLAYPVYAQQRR
ASSAY SUMMARY: Fluorescence polarization assay for PI3K;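 further: PI3K kinase reaction on PIP2 with ATP, 30-60 min, product sensed by GST-GRP with red probe in fluorescence polarization (mP), controls without enzyme and at zero time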
Format: biochemical
EXPERIMENTAL CONDITIONS: PI3Kα; read-out: PI3Kα IC50
// reported IC50 for each item listed
Respond with the bare value in nM.

Examples with answers:
>>> print(df.to_string())
                                   compound  observation_type  unit_abbreviation  test_value
0  N#CN=C(N)Nc1ccc(-c2nc(N3CCOCC3)c3cnn(C4CCN(C(=O)c5cccnc5)CC4)c3n2)cc1 [Example 411]              IC50                 nM         344
1  CN(C)CC=CC(=O)N1CCC(n2ncc3c(N4CCOCC4)nc(-c4ccc5[nH]ccc5c4)nc32)CC1 [Compound 487]              IC50                 nM         480

If you can, please state the reported IC50 value of CCOC(=O)N1CCC(n2ncc3c(N4CCOCC4)nc(-c4ccc(NC(=O)NCCO)cc4)nc32)CC1 [Compound 818] .
445

# lookup: IC50 of c1ccc(-n2ncc3c(N4CCOCC4)nc(-c4ccc5[nH]ncc5c4)nc32)cc1 [Compound 676]
440

What value of measured IC50 is listed for C=CCONC(=O)Nc1ccc(-c2nc(N3CCOCC3)c3cnn(-c4ccccc4)c3n2)cc1 [Compound 296] ?
896

Which IC50 value belongs to CN(C)CC=CC(=O)N1CCC(n2ncc3c(N4CCOCC4)nc(-c4ccc5[nH]ccc5c4)nc32)CC1 [Compound 234] ?
481

Quick check: IC50 of O=C(NCCO)Nc1ccc(-c2nc(N3CCOCC3)c3cnn(C4CCN(C(=O)c5cccnc5)CC4)c3n2)cc1 [Compound 549] ?
220
